target: UniProtKB P31645
Sequence (P31645 whole entry): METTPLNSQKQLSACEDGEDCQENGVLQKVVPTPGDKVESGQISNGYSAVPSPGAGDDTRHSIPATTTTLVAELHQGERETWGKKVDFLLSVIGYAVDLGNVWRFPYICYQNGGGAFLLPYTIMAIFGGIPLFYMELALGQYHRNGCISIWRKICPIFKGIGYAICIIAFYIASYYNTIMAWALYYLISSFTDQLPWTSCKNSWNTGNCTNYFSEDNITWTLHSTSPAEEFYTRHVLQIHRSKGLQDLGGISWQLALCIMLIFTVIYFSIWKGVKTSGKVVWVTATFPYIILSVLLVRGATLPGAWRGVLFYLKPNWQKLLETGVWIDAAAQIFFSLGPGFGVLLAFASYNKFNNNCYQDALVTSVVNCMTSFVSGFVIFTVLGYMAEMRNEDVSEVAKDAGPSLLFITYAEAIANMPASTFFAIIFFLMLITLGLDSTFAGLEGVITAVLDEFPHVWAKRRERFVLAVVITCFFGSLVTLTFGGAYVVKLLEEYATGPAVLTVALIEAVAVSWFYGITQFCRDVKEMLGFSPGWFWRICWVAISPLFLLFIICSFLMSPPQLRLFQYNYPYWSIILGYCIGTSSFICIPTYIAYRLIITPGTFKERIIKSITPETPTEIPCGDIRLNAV
Measured AC50, listed per entry.

Give recorded AC50 with UniProtKB P31645 for the following compound: CC(Cc1ccccc1)NCCC(c1ccccc1)c1ccccc1 (stereo not drawn) 17.6 µM

Give recorded AC50 with UniProtKB P31645 for the following compound: "CC(=O)c1ccc2c(c1)N(CCCN1CCN(CCO)CC1)c1ccccc1S2" 17 µM

Give recorded AC50 with UniProtKB P31645 for the following compound: "CCCC(CCC)C(=O)O[C@H]1C[C@H]2CC[C@@H](C1)[N+]2(C)C" > 30 µM

Give recorded AC50 with UniProtKB P31645 for the following compound: NS(=O)(=O)c1cc(Cl)c(Cl)c(S(N)(=O)=O)c1 [DICHLORPHENAMIDE] > 10 µM

Give recorded AC50 with UniProtKB P31645 for the following compound: "COC(=O)N[C@H](C(=O)N1CCC[C@H]1c1nc(-c2ccc(-c3ccc(-c4c[nH]c([C@@H]5CCCN5C(=O)[C@@H](NC(=O)OC)C(C)C)n4)cc3)cc2)c[nH]1)C(C)C" > 30 µM

Give recorded AC50 with UniProtKB P31645 for the following compound: "C[C@@H]1O[C@@H]1P(=O)(O)O" > 10 µM

Give recorded AC50 with UniProtKB P31645 for the following compound: "CC(=O)N[C@H]1[C@H]([C@H](O)[C@H](O)CO)OC(C(=O)O)=C[C@@H]1N=C(N)N" > 30 µM

Give recorded AC50 with UniProtKB P31645 for the following compound: "Cc1ccc(-c2nc3ccc(C)cn3c2CC(=O)N(C)C)cc1" > 30 µM

Give recorded AC50 with UniProtKB P31645 for the following compound: "CN1CC(=O)N2[C@H](c3ccc4c(c3)OCO4)c3[nH]c4ccccc4c3C[C@@H]2C1=O" 34.8 µM

Give recorded AC50 with UniProtKB P31645 for the following compound: "CCCCCN(C)CCC(O)(P(=O)(O)O)P(=O)(O)O" > 30 µM

Others:
Give recorded AC50 with UniProtKB P31645 for the following compound: "COC(=O)N[C@H](C(=O)N[C@@H](Cc1ccccc1)[C@@H](O)CN(Cc1ccc(-c2ccccn2)cc1)NC(=O)[C@@H](NC(=O)OC)C(C)(C)C)C(C)(C)C" > 30 µM

---

Measured AC50, listed per entry.
biological target: Motilin receptor (Homo sapiens, UniProt O43193); further: assay procedure not described here
Sequence (O43193 whole entry): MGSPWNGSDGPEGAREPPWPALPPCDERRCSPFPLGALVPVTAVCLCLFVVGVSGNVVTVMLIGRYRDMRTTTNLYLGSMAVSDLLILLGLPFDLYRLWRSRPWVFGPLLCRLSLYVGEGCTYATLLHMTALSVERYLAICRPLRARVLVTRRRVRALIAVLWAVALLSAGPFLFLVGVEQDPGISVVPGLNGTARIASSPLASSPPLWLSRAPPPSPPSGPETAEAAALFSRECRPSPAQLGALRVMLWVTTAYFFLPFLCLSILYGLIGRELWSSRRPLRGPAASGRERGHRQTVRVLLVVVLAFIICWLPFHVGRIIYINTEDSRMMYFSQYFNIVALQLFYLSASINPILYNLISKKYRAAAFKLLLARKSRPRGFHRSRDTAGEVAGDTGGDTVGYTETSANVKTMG

For orientation, consider the following solved cases.
Give recorded AC50 with Motilin receptor (Homo sapiens, UniProt O43193) for the following compound: "Cc1nc2ccc(CN(C)c3ccc(C(=O)N[C@@H](CCC(=O)O)C(=O)O)s3)cc2c(=O)[nH]1" > 30 µM

Give recorded AC50 with Motilin receptor (Homo sapiens, UniProt O43193) for the following compound: "CCCCCCCCCCCC[N+](C)(C)CCOc1ccccc1" 3 µM

Give recorded AC50 with Motilin receptor (Homo sapiens, UniProt O43193) for the following compound: "C=C1C[C@@H]2[C@H](CC[C@]3(C)C(=O)CC[C@@H]23)[C@@]2(C)C=CC(=O)C=C12" > 10 µM

Give recorded AC50 with Motilin receptor (Homo sapiens, UniProt O43193) for the following compound: "O=P(O)(O)C(O)(Cc1cccnc1)P(=O)(O)O" > 30 µM

Kindly consider the entry below.
Give recorded AC50 with Motilin receptor (Homo sapiens, UniProt O43193) for the following compound: "Cc1c(Cl)cccc1Nc1ccccc1C(=O)O" > 30 µM

---

Reported values: AC50 for Kappa-type opioid receptor (Homo sapiens, UniProt P41145), one per item.

For the compound shown here, O=C(CCCCC(=O)Nc1c(I)cc(I)c(C(=O)O)c1I)Nc1c(I)cc(I)c(C(=O)O)c1I [IODIPAMIDE] , give the reported AC50. > 10 µM

For the compound shown here, O=C(O)Cc1cn(-c2ccccc2)nc1-c1ccc(Cl)cc1 [LONAZOLAC] , give the reported AC50. > 30 µM

Others:
For the compound shown here, CCCCCCC(C)(C)c1cc(O)c2c(c1)OC(C)(C)C1CCC(=O)CC21 (stereo not drawn) [NABILONE] , give the reported AC50. > 30 µM

---

Measured AC50, listed per entry.
molecular target: 3',5'-cyclic-AMP phosphodiesterase 4A (Homo sapiens, UniProt P27815); type: functional; further: assay procedure not described here
Sequence (P27815 whole entry): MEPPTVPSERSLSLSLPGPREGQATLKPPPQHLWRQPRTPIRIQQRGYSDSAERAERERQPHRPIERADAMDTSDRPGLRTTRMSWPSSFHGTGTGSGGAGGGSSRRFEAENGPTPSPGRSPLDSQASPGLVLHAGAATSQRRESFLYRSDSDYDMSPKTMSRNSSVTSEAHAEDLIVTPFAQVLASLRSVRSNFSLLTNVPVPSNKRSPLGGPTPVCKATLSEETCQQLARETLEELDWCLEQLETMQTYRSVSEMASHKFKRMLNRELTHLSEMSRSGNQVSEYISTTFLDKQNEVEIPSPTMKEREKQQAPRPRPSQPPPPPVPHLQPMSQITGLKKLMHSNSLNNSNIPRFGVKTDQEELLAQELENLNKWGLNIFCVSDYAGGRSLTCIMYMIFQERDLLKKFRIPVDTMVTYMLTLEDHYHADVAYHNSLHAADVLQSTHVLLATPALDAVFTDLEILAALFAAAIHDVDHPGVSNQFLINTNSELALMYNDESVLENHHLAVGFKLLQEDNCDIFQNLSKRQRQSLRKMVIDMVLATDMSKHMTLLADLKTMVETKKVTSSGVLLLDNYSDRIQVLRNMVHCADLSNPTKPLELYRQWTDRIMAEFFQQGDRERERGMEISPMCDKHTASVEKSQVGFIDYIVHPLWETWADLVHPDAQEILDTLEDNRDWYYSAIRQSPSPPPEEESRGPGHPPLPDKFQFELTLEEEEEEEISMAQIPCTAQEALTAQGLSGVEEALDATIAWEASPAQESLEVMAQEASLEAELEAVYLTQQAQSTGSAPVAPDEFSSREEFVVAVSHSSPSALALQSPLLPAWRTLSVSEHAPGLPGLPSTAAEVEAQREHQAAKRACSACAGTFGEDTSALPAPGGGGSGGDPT

For the compound shown here, COc1ccc(CCC(C)NCC(O)c2ccc(O)c([S+](C)[O-])c2)cc1 (stereo not drawn) [SULFINALOL] , give the reported AC50. > 30 µM

For the compound shown here, CC(C)OC(=O)[C@H](C)N[P@](=O)(OC[C@H]1O[C@@H](n2ccc(=O)[nH]c2=O)[C@](C)(F)[C@@H]1O)Oc1ccccc1 [SOFOSBUVIR] , give the reported AC50. > 30 µM

Others:
For the compound shown here, CCOC(=O)CC(SP(=S)(OC)OC)C(=O)OCC (stereo not drawn) [MALATHION] , give the reported AC50. > 30 µM

For the compound shown here, "O=C(O)c1cccc(-c2noc(-c3ccccc3F)n2)c1" , give the reported AC50. > 30 µM

For the compound shown here, Cc1cc2c(cc1CC(=O)c1sccc1S(=O)(=O)Nc1onc(C)c1Cl)OCO2 [SITAXENTAN] , give the reported AC50. 25 µM

---

Reported values: AC50 for Gamma-aminobutyric acid receptor subunit alpha-1 (Rattus norvegicus, UniProt P62813), one per item.

For orientation, consider the following solved cases.
Give recorded AC50 with Gamma-aminobutyric acid receptor subunit alpha-1 (Rattus norvegicus, UniProt P62813) for the following compound: CC(C)C(=O)OCC(=O)[C@@]12O[C@H](C3CCCCC3)O[C@@H]1C[C@H]1[C@@H]3CCC4=CC(=O)C=C[C@]4(C)[C@H]3[C@@H](O)C[C@@]12C [CICLESONIDE] > 30 µM

Give recorded AC50 with Gamma-aminobutyric acid receptor subunit alpha-1 (Rattus norvegicus, UniProt P62813) for the following compound: "CC(C)c1c(C(=O)Nc2ccccc2)c(-c2ccccc2)c(-c2ccc(F)cc2)n1CC[C@@H](O)C[C@@H](O)CC(=O)O" > 10 µM

Give recorded AC50 with Gamma-aminobutyric acid receptor subunit alpha-1 (Rattus norvegicus, UniProt P62813) for the following compound: "CCCCOc1cc(C(=O)NCCN(CC)CC)c2ccccc2n1" > 30 µM

Others:
Give recorded AC50 with Gamma-aminobutyric acid receptor subunit alpha-1 (Rattus norvegicus, UniProt P62813) for the following compound: "CN[C@@H]1[C@H](O)[C@H](NC)[C@H]2O[C@@]3(O)C(=O)C[C@@H](C)O[C@H]3O[C@@H]2[C@H]1O" > 10 µM

Give recorded AC50 with Gamma-aminobutyric acid receptor subunit alpha-1 (Rattus norvegicus, UniProt P62813) for the following compound: CCN1CCC[C@H]1CNC(=O)c1cc(S(N)(=O)=O)ccc1OC [LEVOSULPIRIDE] > 10 µM

---

molecular target: Acetylcholinesterase (Homo sapiens, UniProt P22303); format: functional; further: assay procedure not described here
Sequence (P22303 whole entry): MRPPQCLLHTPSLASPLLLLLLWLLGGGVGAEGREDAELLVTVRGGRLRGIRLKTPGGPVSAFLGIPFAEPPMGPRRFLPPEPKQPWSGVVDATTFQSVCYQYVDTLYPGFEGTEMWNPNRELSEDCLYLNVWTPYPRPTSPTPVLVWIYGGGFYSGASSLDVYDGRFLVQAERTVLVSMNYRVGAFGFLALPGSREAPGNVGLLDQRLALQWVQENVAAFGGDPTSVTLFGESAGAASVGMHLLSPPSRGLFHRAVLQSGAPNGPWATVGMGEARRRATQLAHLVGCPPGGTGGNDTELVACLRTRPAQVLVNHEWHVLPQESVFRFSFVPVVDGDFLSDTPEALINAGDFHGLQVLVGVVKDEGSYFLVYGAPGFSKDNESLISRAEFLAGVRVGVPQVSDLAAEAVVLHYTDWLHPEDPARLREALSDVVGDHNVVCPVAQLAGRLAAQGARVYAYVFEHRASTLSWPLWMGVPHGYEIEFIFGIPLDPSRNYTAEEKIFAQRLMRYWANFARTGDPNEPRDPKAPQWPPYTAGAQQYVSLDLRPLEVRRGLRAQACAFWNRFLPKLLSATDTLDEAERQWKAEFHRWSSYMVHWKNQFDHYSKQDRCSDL
assay endpoint: AC50

For orientation, consider the following solved cases.
Give recorded AC50 with Acetylcholinesterase (Homo sapiens, UniProt P22303) for the following compound: CN1CCCC(CN2c3ccccc3Sc3ccccc32)C1 (centres undefined) > 30 µM

Give recorded AC50 with Acetylcholinesterase (Homo sapiens, UniProt P22303) for the following compound: NS(=O)(=O)c1cc2c(cc1Cl)NC(CC1CCCC1)NS2(=O)=O (centres undefined) [CYCLOPENTHIAZIDE] > 30 µM

Give recorded AC50 with Acetylcholinesterase (Homo sapiens, UniProt P22303) for the following compound: "CCOC(=O)c1ccc(O)cc1" > 30 µM

Others:
Give recorded AC50 with Acetylcholinesterase (Homo sapiens, UniProt P22303) for the following compound: "CCS(=O)(=O)N1CC(CC#N)(n2cc(-c3ncnc4[nH]ccc34)cn2)C1" > 10 µM

Give recorded AC50 with Acetylcholinesterase (Homo sapiens, UniProt P22303) for the following compound: "C#C[C@]1(O)CC[C@H]2[C@@H]3CCc4cc(O)ccc4[C@H]3CC[C@@]21C" > 30 µM

Give recorded AC50 with Acetylcholinesterase (Homo sapiens, UniProt P22303) for the following compound: "O=C(O)c1cccc(-c2noc(-c3ccccc3F)n2)c1" > 30 µM

Give recorded AC50 with Acetylcholinesterase (Homo sapiens, UniProt P22303) for the following compound: "CC(C)=CCC1C(=O)N(c2ccccc2)N(c2ccccc2)C1=O" > 30 µM

Give recorded AC50 with Acetylcholinesterase (Homo sapiens, UniProt P22303) for the following compound: "COc1cc(Nc2c(C#N)cnc3cc(OCCCN4CCN(C)CC4)c(OC)cc23)c(Cl)cc1Cl" 15.6 µM

Give recorded AC50 with Acetylcholinesterase (Homo sapiens, UniProt P22303) for the following compound: "C[C@@H]1C[C@H]2[C@@H]3C[C@H](F)C4=CC(=O)C(Cl)=C[C@]4(C)[C@@]3(F)[C@@H](O)C[C@]2(C)[C@@]1(O)C(=O)CO" > 30 µM
